system-name: T1, Cdc25, P04821
T1 sequence (P04821 50-136, looked up): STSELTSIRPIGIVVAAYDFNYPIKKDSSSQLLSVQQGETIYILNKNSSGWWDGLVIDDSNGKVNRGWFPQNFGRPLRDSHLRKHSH
test-method-notes: SPOT array
study-conditions: median of control spots 969
quantity-name: SPOT intensity

1. RSKRLFPVRPMATAH
2. RFKRHRLEFPFNESE
3. LLLLFVPDSPYDPAI
Inquiry: List the items above again, this time ordered by increasing SPOT intensity. In plain terms: list the labels in the order you were asked to.
Reply text: 3, 1, 2
(3: 0, 1: 22, 2: 142)
